These data points were gathered from patent US7098304B1.

Test system: SDAs as compared to NSDAs
TEST METHOD NOTES: Binding activity of peptides line-blotted onto PVDF to SDAs as compared to NSDAs
Set-up: species or system human; key: showed a substantially higher binding activity to SDAs as compared to their binding to NSDAs (indicated as YES in the table); No: showed no significant differences in their binding to samples from schizophrenic and non-schizophrenic individuals (designed as no in the table)
CONDITIONS USED: binding to SDAs versus NSDAs
Method: 1. Platelets and Anti-Platelet Autoantibodies Venous blood (20 ml) was drawn with heparin as anticoagulant from patients and control subjects. Platelet rich plasma (PRP) was obtained by centrifugation (100 g for 20 mins) at room temperature. […] The fractions were analyzed for immuno-reactivity by polyacrylamide (10%) gel electrophoresis, blotting the proteins onto PVDF membranes and probing the membrane with 1 ml auto-antibodies in 50 ml incubation buffer. […]
MEASURED METRIC: Activity

SUBSTANCE	TARGET	Activity
3 (LVVGLCTCQIKTGPAC; peptide capable of binding antibodies that are found in elevated levels in body fluids of schizophrenic patients.) [compound 3]	SDAs as compared to NSDAs	YES
12 (CTGQIKTGAPCR; peptide capable of binding antibodies that are found in elevated levels in body fluids of schizophrenic patients.) [compound 12]	SDAs as compared to NSDAs	No
8 (LVVGLCTGQIKTGPACR; peptide capable of binding antibodies that are found in elevated levels in body fluids of schizophrenic patients.) [compound 8]	SDAs as compared to NSDAs	YES
2 (SGETEDTFIADLVVGLCTGQIKTGAPCR; being the immunologically active epitope) [compound 2]	SDAs as compared to NSDAs	YES
5 (ADLVVGLCTGQIKTGAPCR; peptide capable of binding antibodies that are found in elevated levels in body fluids of schizophrenic patients.) [compound 5]	SDAs as compared to NSDAs	YES
15 (LVVGLCTGQIKTGPAC; peptide capable of binding antibodies that are found in elevated levels in body fluids of schizophrenic patients.) [compound 15]	SDAs as compared to NSDAs	No

Turning now to a further substance:
Given item 7 (LVVGLCTGQIKTGAPCR; peptide capable of binding antibodies that are found in elevated levels in body fluids of schizophrenic patients.) [compound 7] , the value recorded as its Activity is YES
